Source listed as patent US20260049134A1.

- test.system: T1, GARS, endogenous in H929 multiple myeloma cells (human, UniProt P41250 37-739, limits assumed)
- T1 construct: Native protein pulled down from H929 lysates; also called Glycyl-tRNA synthetase; GlyRS
- T1 sequence: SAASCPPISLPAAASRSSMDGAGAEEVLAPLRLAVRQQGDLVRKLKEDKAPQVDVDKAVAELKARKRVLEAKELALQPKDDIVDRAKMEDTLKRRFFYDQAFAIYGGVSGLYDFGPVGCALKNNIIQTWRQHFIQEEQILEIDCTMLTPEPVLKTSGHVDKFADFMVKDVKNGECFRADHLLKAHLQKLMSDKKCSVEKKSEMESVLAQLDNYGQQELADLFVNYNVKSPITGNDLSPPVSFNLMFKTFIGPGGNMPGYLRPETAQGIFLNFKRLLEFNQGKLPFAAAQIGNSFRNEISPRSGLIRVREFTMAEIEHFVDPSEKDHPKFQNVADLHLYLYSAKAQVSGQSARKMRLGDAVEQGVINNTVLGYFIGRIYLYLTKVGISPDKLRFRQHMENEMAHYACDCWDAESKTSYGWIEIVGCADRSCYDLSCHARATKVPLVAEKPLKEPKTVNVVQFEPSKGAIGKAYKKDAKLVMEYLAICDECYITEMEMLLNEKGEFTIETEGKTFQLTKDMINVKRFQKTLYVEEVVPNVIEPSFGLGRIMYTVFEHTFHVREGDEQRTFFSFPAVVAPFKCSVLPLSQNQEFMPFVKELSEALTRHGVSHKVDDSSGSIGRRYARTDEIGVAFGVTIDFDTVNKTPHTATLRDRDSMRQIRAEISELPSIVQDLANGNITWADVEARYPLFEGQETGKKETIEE
- assay.name: flow cytometry, H929 + ICAM1 siRNA; None 1.06; surface target GARS putative
Listing of recorded Cells stained (%) by entry.
Enter your answer as a number in %; do not include the unit.

Would you please look over these solved cases?
binder	value.reported
HW-8 chimeric rabbit-human IgG1 LA/LA/PG (antibody, V domains shown, Fc-silenced (L234A/L235A/P329G) IgG1, kappa; Alexa Fluor 647-labeled in single-step flow cytometry; Cluster C-45) VH: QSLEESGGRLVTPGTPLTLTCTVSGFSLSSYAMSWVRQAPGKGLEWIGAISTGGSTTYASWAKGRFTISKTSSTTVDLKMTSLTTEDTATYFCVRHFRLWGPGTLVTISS VL: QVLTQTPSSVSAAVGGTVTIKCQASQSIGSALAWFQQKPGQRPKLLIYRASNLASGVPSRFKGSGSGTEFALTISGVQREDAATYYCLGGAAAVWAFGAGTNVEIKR	76.3
HW-45 chimeric rabbit-human IgG1 LA/LA/PG (antibody, V domains shown, Fc-silenced (L234A/L235A/P329G) IgG1, lambda; Alexa Fluor 647-labeled in single-step flow cytometry; Prototype of cluster C-45) VH: QKQLVESGGRLVTPGTPLTLTCTVSGFSLSSYAMGWFRQAPGKGLEWIGIINSYGSTYYASWAKGRFTISKTSTTVDLKITSPTTEDTATYFCGRRIGSARFDPWGPGTLVTVSS VL: SFVLTQPASVQVNLGQTVSLTCTADTLSRSYASWYQQKPGQAPVLLIYRDTRRPSGVPDRFSGSSSGNTATLTISGAQAGDEADYYCATSDGSGSSYRLVFGGGTQLTVTG	95.1

// moving on: another record for Cells stained (%)
Briefly, Cells stained (%) measured for HW-56 chimeric rabbit-human IgG1 LA/LA/PG (antibody, V domains shown, Fc-silenced (L234A/L235A/P329G) IgG1, kappa; Alexa Fluor 647-labeled in single-step flow cytometry; Cluster C-45) VH: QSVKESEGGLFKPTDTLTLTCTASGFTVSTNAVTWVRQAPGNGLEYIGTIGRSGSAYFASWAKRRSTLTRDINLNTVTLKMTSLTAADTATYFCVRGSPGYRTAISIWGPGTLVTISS VL: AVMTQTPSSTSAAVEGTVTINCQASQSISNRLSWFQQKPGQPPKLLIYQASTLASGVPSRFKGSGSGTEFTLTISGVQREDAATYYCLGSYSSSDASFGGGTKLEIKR : 99.2
